system: FXR:RXRa (NR concentration 270 nM, RXRa partner concentration 90 nM); test: PBM binding z-score (relative to random genomic background probes); higher = stronger binding; sequences stand for … in GC…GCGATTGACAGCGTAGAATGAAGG
Rule: PBM binding z-score of 1 or more gives True; anything lower gives False.

>>> df
                      sequence_content  assigned_class
 0  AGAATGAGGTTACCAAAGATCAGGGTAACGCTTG            True
 1  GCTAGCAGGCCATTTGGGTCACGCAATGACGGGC           False
 2  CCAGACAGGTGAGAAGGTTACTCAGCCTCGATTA           False
 3  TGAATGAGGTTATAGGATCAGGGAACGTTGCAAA            True
 4  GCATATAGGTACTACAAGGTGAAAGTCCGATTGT           False
 5  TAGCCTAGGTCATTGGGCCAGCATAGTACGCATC            True
 6  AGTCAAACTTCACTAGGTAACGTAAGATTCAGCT           False
 7  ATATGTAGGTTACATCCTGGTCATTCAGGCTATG           False
 8  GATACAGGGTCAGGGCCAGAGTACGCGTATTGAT            True
 9  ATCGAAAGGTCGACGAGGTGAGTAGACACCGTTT            True
10  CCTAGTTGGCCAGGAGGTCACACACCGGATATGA            True
11  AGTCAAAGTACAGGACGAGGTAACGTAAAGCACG           False
12  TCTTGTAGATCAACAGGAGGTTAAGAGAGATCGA           False
13  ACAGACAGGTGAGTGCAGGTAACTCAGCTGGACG           False
14  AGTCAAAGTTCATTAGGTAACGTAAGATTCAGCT            True
15  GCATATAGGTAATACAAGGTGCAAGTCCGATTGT           False
16  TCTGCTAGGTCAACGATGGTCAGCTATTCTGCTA            True
17  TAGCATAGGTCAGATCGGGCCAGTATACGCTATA            True
18  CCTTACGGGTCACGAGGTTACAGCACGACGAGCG            True
19  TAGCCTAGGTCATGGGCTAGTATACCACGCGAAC            True
20  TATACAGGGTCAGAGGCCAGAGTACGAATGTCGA            True
21  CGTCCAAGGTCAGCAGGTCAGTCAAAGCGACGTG            True
22  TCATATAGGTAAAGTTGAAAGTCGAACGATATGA           False
23  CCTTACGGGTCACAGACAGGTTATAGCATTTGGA            True
24  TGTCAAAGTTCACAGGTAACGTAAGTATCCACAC            True
25  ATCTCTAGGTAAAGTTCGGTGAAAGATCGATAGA           False
26  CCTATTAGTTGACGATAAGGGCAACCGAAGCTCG           False
27  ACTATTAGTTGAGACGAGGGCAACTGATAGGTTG           False
28  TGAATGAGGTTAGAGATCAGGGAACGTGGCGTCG           False
29  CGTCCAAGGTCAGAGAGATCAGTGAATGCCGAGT            True
30  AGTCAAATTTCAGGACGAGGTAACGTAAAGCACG           False
31  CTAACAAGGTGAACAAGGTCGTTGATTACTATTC            True
32  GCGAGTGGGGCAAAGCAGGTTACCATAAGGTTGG           False
33  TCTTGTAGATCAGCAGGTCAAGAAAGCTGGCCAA            True
34  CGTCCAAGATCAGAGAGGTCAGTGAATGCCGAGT            True
35  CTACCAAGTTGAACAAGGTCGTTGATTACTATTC            True
36  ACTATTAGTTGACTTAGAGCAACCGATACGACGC           False
37  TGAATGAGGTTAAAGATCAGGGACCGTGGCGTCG            True
38  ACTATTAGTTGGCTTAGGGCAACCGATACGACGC           False
39  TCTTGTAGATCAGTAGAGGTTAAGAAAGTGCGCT           False
40  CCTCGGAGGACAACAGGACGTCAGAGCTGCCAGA           False
41  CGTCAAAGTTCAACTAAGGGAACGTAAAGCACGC            True
42  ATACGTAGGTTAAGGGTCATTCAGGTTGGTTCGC            True
43  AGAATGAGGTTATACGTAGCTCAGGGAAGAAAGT            True
44  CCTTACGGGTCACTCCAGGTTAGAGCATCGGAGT            True
45  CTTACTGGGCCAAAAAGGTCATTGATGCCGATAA            True
46  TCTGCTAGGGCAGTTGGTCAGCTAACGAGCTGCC           False
47  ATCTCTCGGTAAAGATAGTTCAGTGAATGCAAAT           False
48  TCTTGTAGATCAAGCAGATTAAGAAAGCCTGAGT           False

Where do the numbers come from? From the supplement of paper PMC6555819.
